tgt: UniProtKB P14174
Sequence (P14174 whole entry): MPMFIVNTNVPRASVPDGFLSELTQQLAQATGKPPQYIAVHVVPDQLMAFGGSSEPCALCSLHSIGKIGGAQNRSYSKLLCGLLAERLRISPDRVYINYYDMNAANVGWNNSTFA
test protocol: Inhibition of macrophage migration inhibitory factor tautomerase activity in human Jurkat T cells using L-dopachrome methyl ester as substrate incubated for 30 mins prior to substrate addition measured for 2 mins by spectrophotometric analysis
Type: cell-based
Could you please report measured IC50 for the items listed next?
Answers are plain numbers, in µM.

CC(N=C=S)c1ccccc1 (stereo not drawn) [1-PHENYLETHYL ISOTHIOCYANATE]; 2.8
Oc1ccc(CCN=C=S)cc1; 1.2
Fc1cccc(CN=C=S)c1; 1.5

I would be grateful if you could provide IC50 for each of the following entries.
1. Oc1cccc(CCN=C=S)c1
2. S=C=Nc1ccccc1 [PHENYLISOTHIOCYANATE]
3. COc1ccccc1OCCN=C=S
4. C[C@@H](N=C=S)c1ccccc1

[out]
1: 7.8; 2: 11; 3: 1.8; 4: 1.1
